Provide the recorded EC50 for the entries that follow.
molecular target: human FGFR1c + KLB receptor complex on HEK293 iLite FGF21 reporter cells (human, UniProt P11362 22-822; Q86Z14 1-1044); assay: cell-based or functional assay
Sequence (P11362 22-822, chain 1 of 2): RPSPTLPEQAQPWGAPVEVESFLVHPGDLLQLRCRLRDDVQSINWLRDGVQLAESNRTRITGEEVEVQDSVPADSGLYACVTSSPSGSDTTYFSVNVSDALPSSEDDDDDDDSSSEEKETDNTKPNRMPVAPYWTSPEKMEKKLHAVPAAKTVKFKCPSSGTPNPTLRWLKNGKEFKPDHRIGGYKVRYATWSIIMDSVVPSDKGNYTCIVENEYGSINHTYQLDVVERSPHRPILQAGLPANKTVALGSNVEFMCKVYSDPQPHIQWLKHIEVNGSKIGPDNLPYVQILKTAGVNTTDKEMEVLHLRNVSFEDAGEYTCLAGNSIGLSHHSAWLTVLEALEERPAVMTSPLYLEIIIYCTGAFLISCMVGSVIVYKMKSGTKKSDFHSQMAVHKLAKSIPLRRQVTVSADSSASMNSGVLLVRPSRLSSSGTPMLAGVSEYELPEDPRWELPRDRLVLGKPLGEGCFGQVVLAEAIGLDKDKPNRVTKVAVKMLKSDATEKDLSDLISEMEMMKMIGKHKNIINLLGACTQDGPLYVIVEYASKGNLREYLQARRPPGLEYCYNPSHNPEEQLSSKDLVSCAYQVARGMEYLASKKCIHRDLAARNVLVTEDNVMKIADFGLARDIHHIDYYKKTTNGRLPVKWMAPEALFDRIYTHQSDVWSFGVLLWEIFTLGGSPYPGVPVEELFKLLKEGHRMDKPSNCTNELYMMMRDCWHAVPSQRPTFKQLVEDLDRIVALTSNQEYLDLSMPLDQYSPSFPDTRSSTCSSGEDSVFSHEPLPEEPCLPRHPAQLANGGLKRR
Sequence (Q86Z14 whole entry, chain 2 of 2): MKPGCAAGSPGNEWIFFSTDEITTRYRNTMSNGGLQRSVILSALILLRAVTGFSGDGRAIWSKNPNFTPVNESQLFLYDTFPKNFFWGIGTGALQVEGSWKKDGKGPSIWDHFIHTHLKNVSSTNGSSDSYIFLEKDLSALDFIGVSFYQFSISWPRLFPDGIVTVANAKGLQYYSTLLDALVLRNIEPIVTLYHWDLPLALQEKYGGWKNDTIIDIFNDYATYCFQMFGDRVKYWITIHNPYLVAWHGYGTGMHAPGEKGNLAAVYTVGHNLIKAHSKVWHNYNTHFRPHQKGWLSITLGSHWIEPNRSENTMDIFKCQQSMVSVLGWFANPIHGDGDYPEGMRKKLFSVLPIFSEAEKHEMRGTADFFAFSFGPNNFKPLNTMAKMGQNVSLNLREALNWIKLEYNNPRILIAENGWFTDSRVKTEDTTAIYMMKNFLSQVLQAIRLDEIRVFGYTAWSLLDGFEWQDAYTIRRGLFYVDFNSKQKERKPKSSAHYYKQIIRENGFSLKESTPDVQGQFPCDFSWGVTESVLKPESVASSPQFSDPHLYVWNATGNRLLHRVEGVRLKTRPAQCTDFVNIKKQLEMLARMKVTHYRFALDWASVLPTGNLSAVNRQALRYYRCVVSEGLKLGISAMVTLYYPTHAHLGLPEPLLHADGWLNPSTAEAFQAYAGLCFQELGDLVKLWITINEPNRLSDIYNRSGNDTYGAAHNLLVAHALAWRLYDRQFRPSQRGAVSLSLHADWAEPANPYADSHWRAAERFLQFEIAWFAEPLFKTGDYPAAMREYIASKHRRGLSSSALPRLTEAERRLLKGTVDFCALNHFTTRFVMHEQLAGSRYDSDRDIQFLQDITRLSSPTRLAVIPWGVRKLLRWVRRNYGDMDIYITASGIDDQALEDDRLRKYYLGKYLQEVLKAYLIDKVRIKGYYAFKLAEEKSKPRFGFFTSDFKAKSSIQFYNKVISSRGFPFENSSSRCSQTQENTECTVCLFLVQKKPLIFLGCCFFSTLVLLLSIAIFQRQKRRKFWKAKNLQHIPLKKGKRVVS
Respond numerically; units are nM and should not be typed.

Kindly note the recorded EC50 for Ab0352 (antibody, IgG4, V domains shown, IgG4 PE) VH: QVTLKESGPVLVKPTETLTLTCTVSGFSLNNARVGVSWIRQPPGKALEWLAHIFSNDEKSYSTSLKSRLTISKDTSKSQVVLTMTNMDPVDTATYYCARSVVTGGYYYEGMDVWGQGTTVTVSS VL: SYVLTQPPSVSVAPGQTARITCGGSNIGSESVHWYQQKPGQAPVLVVYEESDRPSGIPERFSGSNSGNTATLTISRVEAGDEADYYCQVWEGSSDHVVFGGGTKLTVLG , which is 0.07

Kindly note the recorded EC50 for Ab0454 (antibody, IgG4, V domains shown) VH: QVTLKESGPVLVKPTETLTLTCTVSGFSLTNARVGVSWIRQPPGKALEWLAHIFSNDEKSYSTSLKSRLTISKDTSKSQVVLTMTNMDPVDTATYYCARSVVTGGYYYEGMDVWGQGTTVTVSS VL: SYVLTQPPSVSVAPGQTARITCGGSNIGSESVHWYQQKPGQAPVLVVYSESDRPSGIPERFSGSNSGNTATLTISRVEAGDEADYYCQVWEGESDHVVFGGGTKLTVLG , which is 0.03

Kindly note the recorded EC50 for Ab0360 (antibody, IgG4, V domains shown, IgG4 PE) VH: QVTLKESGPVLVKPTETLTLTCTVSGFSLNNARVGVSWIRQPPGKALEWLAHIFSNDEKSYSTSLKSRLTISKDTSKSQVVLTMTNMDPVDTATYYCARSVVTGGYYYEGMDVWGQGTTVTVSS VL: SYVLTQPPSVSVAPGQTARITCGGSNIGSESVHWYQQKPGQAPVLVVYEHSDRPSGIPERFSGSNSGNTATLTISRVEAGDEADYYCQVWEGSSDHVVFGGGTKLTVLG , which is 0.08

Kindly note the recorded EC50 for Ab0317 (antibody, IgG4, V domains shown) VH: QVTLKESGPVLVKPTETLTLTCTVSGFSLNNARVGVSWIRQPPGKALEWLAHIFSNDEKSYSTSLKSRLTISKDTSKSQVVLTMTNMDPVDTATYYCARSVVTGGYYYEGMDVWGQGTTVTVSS VL: SYVLTQPPSVSVAPGQTARITCGGNNIGSESVHWYQQKPGQAPVLVVYDESDRPSGIPERFSGSNSGNTATLTISRVEAGDEADYYCQVWTGESDHVVFGGGTKLTVLG , which is 0.17

Kindly note the recorded EC50 for Ab0297 (antibody, IgG4, V domains shown, IgG4 PE) VH: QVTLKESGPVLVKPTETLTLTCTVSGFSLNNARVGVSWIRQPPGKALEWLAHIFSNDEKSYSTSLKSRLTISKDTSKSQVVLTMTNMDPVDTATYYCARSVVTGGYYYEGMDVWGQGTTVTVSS VL: SYVLTQPPSVSVAPGQTARITCGGNNIGSESVHWYQQKPGQAPVLVVYYESDRPSGIPERFSGSNSGNTATLTISRVEAGDEADYYCQVWDGNSDHVVFGGGTKLTVLG , which is 0.07

Kindly note the recorded EC50 for Ab0463 (antibody, IgG4, V domains shown) VH: QVTLKESGPVLVKPTETLTLTCTVSGFSLSYARVGVSWIRQPPGKALEWLAHIFSNDEKSYSTSLKSRLTISKDTSKSQVVLTMTNMDPVDTATYYCARSVVTGGYYYEGMDVWGQGTTVTVSS VL: SYVLTQPPSVSVAPGQTARITCGGSNIGSESVHWYQQKPGQAPVLVVYEESDRPSGIPERFSGSNSGNTATLTISRVEAGDEADYYCQVWEGESDHVVFGGGTKLTVLG , which is 0.05

Kindly note the recorded EC50 for Ab0460 (antibody, IgG4, V domains shown) VH: QVTLKESGPVLVKPTETLTLTCTVSGFSLTYARVGVSWIRQPPGKALEWLAHIFSNDEKSYSTSLKSRLTISKDTSKSQVVLTMTNMDPVDTATYYCARSVVTGGYYYEGMDVWGQGTTVTVSS VL: SYVLTQPPSVSVAPGQTARITCGGSNIGSESVHWYQQKPGQAPVLVVYSASDRPSGIPERFSGSNSGNTATLTISRVEAGDEADYYCQVWEGESDHVVFGGGTKLTVLG , which is 0.05

Kindly note the recorded EC50 for Ab0311 (antibody, IgG4, V domains shown, IgG4 PE) VH: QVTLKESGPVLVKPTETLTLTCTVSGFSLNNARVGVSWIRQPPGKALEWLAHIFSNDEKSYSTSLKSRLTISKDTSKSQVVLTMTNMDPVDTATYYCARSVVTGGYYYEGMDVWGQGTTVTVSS VL: SYVLTQPPSVSVAPGQTARITCGGNNIGSESVHWYQQKPGQAPVLVVYYESDRPSGIPERFSGSNSGNTATLTISRVEAGDEADYYCQVWDGESDHVVFGGGTKLTVLG , which is 0.05
